Origin of values: patent US7651978B2

The entries below are paired with their reported degree of damage, Agropyron.
- Tested on: Agropyron
- EXPERIMENT SUMMARY: Post-emergence test/greenhouse
- Type: in vivo
- SETTINGS: 60 g ai./ha, after three weeks
Structures can show the parent of a compound that is named as a salt.

COMPOUND | degree of damage, Agropyron [%]
COc1nn(C(=O)NS(=O)(=O)c2ccccc2OC(F)(F)F)c(=O)n1C [(I)-Na-salt] | 70
CCn1c(OC)nn(C(=O)NS(=O)(=O)c2ccccc2OC(F)(F)F)c1=O [(A)] | 0
COn1c(C)nn(C(=O)NS(=O)(=O)c2ccccc2OC(F)(F)F)c1=O [(C)] | 0
COc1nn(C(=O)NS(=O)(=O)c2ccccc2OC(F)F)c(=O)n1C [(E)] | 60
